Origin of measurements: patent US6528528B2

# Tgt: rabbit reticulocyte 15-LO (Oryctolagus cuniculus)
# Construct: Fifteen-lipoxygenase was obtained from phenylhydrazine-treated rabbits and purified per the method of Rapoport; from tissue; host or cells: reticulocytes of phenylhydrazine-treated rabbits
# Sequence (P12530 1-663): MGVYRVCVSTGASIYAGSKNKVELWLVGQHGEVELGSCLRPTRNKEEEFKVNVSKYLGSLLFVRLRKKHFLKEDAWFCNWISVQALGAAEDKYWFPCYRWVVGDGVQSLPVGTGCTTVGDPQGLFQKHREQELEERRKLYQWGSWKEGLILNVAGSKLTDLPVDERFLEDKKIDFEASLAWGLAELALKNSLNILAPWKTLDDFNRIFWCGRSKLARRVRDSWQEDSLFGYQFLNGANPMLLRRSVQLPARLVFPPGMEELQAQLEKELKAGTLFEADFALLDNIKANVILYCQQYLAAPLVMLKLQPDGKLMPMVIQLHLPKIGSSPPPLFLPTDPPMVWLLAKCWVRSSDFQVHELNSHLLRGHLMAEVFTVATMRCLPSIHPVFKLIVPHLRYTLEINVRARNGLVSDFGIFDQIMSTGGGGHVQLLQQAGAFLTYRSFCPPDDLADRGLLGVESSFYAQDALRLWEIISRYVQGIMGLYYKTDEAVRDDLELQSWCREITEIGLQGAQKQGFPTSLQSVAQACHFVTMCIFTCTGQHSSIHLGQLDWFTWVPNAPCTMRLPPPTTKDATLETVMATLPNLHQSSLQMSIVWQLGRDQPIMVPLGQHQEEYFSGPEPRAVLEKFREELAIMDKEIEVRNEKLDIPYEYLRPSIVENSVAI
# Experiment Summary: Rabbit Reticulocyte 15-LO Assay (h15LO)
# Assay type: biochemical
# Settings: Table 2; concentration not given
# Procedure: Rabbit Reticulocyte 15-LO Assay (h15LO) The present 15-LO assay takes advantage of the ability of 15-LO to oxidize the fatty acid linoleic acid to the hydroperoxy fatty acid 13-(S)HPODE, resulting in the formation of a conjugated diene. The 15-LO inhibitors are incubated with 15-LO enzyme in the presence of linoleic acid substrate. […] 13-HPODE is quantitated by comparing peak areas of individual samples with those from a standard curve generated using authentic 13-HODE. […]
Reported Metric: h15LO, value given as bare % (%)
Numeric only. Scale: %

Past entries and their recorded results:
1. O=C(Nc1ccc(F)cc1)c1ccc(OC(F)(F)F)c(Nc2cccc(C(F)(F)F)c2)c1
44.58
2. COc1ccc(C(=O)Nc2ccccc2)cc1NC(=NC#N)Nc1cc(Cl)cc(Cl)c1
45
3. COc1ccc(C(=O)Nc2ccccc2)cc1NC(=O)C(O)c1ccccc1 (centres unmarked)
61
4. Nc1cc(C(=O)Nc2ccccc2)ccc1OC(F)(F)F
37.05
5. COc1ccc(NC(=O)c2ccc(F)c(F)c2)cc1NS(=O)(=O)c1ccc(N)cc1
97.68

Ask | Which h15LO, value given as bare % is listed for COc1ccc(C(=O)Nc2ccc(F)c(F)c2)cc1NS(=O)(=O)c1cccc(N)c1 ?
Reply | 99.71

Ask | Report h15LO, value given as bare % for COc1ccc(C(=O)Nc2ccccc2)cc1NCc1ccc(-c2ccccc2)cc1 please.
Reply | 64.09

Ask | So what does the record say about h15LO, value given as bare % for Nc1cc(C(=O)Nc2ccc(F)cc2)ccc1OC(F)(F)F ?
Reply | 35.29

* * *

# Tgt: rabbit reticulocyte 15-LO (Oryctolagus cuniculus)
# Construct: Fifteen-lipoxygenase was obtained from phenylhydrazine-treated rabbits and purified per the method of Rapoport; from tissue; host or cells: reticulocytes of phenylhydrazine-treated rabbits
# Experiment Summary: Rabbit Reticulocyte 15-LO Assay (h15LO)
# Assay type: biochemical
# Settings: Table 2; concentration not given
Labelling field: enter TRUE if recorded h15LO, value given as bare % is less than 90%. Enter FALSE if it equals or exceeds that cut-off.

Worked examples, 5 molecules total:
1) COc1ccc(C(=O)Nc2ccccc2)cc1NCc1ccc([N+](=O)[O-])c(O)c1
FALSE
2) COc1ccc(NC(=O)c2ccc(F)c(F)c2)cc1NCc1cccs1
FALSE
3) COc1ccc(C(=O)Nc2ccc(F)c(F)c2)cc1NCc1ccccc1
FALSE
4) COc1ccc(C(=O)Nc2cccnc2)cc1NCc1cccs1
TRUE
5) COc1ccc(NC(=O)Nc2ccc(Cl)c(Cl)c2)cc1NS(=O)(=O)c1cccs1
TRUE

Ask | State whether 90% exceeds h15LO, value given as bare % recorded for Nc1cc(NC(=O)c2ccc(F)c(F)c2)ccc1F .
Reply | TRUE

Ask | Is it true that h15LO, value given as bare % reported for COc1ccc(NC(=O)c2ccc(F)c(F)c2)cc1NCc1cccc(C(=O)O)c1 is less than 90%?
Reply | TRUE

Ask | Is h15LO, value given as bare % strictly under 90% for the entry COc1ccc(C(=O)Nc2ccc(Cl)c(Cl)c2)cc1NCc1cccs1 ?
Reply | FALSE

Ask | Please let me know if CCCCCCCCCCCCS(=O)(=O)Nc1cc(C(=O)Nc2ccc(Cl)c(Cl)c2)ccc1OC shows h15LO, value given as bare % below 90%.
Reply | FALSE

Ask | Does the reported h15LO, value given as bare % of COc1ccc(C(=O)Nc2ccc(F)cc2)cc1Nc1ccc(F)cc1 stay below 90%?
Reply | FALSE

* * *

Reported Metric: melting point

Use the examples below as a reference point.
1) O=C(Nc1ccccc1)c1ccc(F)c(NC(=S)Nc2cc(Cl)cc(Cl)c2)c1 [Example 96]
173 to 175 °C
2) COc1ccc(C(=O)Nc2ccccc2)cc1NC(=S)Nc1ccc(N(C)C)cc1 [Example 93]
179 to 180 °C
3) COc1ccc(S(=O)(=O)Nc2ccccc2)cc1NC(=S)Nc1cc(Cl)cc(Cl)c1 [Example 109]
163 to 165 °C
4) COc1ccc(C(=O)Nc2ccccc2)cc1NS(=O)(=O)c1cc(Br)c(Br)s1 [Example 126]
205 to 210 °C

Ask | Given CCOc1ccc(C(=O)Nc2ccccc2)cc1Nc1cccc(C(F)(F)F)c1 [Example 42] , state its recorded melting point.
Reply | 184 to 185 °C

Ask | Return reported melting point; argument: COc1ccc(C(=O)Nc2ccccc2)cc1NC(=S)Nc1cccnc1 [Example 81]
Reply | 178 to 179 °C

Ask | # melting point lookup, item COc1ccc(C(=O)Nc2ccccc2)cc1NC(=S)Nc1ccc(F)cc1 [Example 78]
Reply | 182 to 183 °C

Ask | Requested field: melting point. Item: O=C(Nc1ccccc1)c1ccc(O)c(Nc2cc(Cl)cc(Cl)c2)c1 [Example 56]
Reply | 160 to 162 °C

Ask | Look at this compound and give its reported melting point. CSc1ccc(C(=O)Nc2ccccc2)cc1NC(=S)Nc1cc(Cl)cc(Cl)c1 [Example 106]
Reply | 172 to 175 °C

Ask | Please give the measured melting point for this compound: COc1ccc(C(=O)Nc2ccccc2)cc1NC(=S)Nc1ccc(OC)c(OC)c1 [Example 72]
Reply | 170 to 171 °C

Ask | Name the reported melting point value associated with the compound COc1ccc(C(=O)Nc2ccccc2)cc1NC(=S)Nc1cc(C)cc(C)c1 [Example 99]
Reply | 203 to 205 °C

* * *

# Tgt: rabbit reticulocyte 15-LO (Oryctolagus cuniculus, UniProt P12530)
# Construct: Fifteen-lipoxygenase was obtained from phenylhydrazine-treated rabbits and purified per the method of Rapoport; from tissue; host or cells: reticulocytes of phenylhydrazine-treated rabbits
# Experiment Summary: Rabbit Reticulocyte 15-LO Assay (h15LO)
# Format: biochemical
# Settings: Table 2; concentration not given
Reported Metric: h15LO, value given as bare % (%)
Lab book: enter the figure in %, no units written.

1. COc1ccc(C(=O)Nc2ccccc2)cc1N(S(=O)(=O)c1cc(Cl)cc(Cl)c1)S(=O)(=O)c1cc(Cl)cc(Cl)c1 [Example 251]
62.01
2. CCCCCCCCCCCCS(=O)(=O)Nc1cc(NC(=O)c2ccc(F)c(F)c2)ccc1OC [Example 200]
96.92
3. COc1ccc(C(=O)Nc2ccc(F)c(F)c2)cc1NS(=O)(=O)c1ccc([N+](=O)[O-])cc1 [Example 186]
99.35
4. COc1ccc(C(=O)Nc2ccc(F)cc2)cc1NC(=S)Nc1ccc(C(=O)O)cc1 [Example 166]
98.11
5. COc1ccc(C(=O)Nc2ccccc2)cc1NCc1cccc(C#N)c1 [Example 229]
92.70

Ask | # get_value(readout= h15LO, value given as bare %, system= rabbit reticulocyte 15-LO (Oryctolagus cuniculus, UniProt P12530)) for COc1ccc(C(=O)Nc2ccc(F)c(F)c2)cc1NC(=S)Nc1ccc(S(=O)(=O)[O-])cc1.[Na+] [Example 165]
Reply | 98.51

Ask | Record lookup: for rabbit reticulocyte 15-LO (Oryctolagus cuniculus, UniProt P12530), what h15LO, value given as bare % belongs to COc1ccc(NC(=O)c2ccc(F)c(F)c2)cc1NS(=O)(=O)CCl [Example 201] ?
Reply | 93.97

Ask | Could you share what h15LO, value given as bare % was measured for CCN(CC)c1ccc(CNc2cc(C(=O)Nc3ccc(F)c(F)c3)ccc2OC)cc1 [Example 226] , tested on rabbit reticulocyte 15-LO (Oryctolagus cuniculus, UniProt P12530)?
Reply | 96.21

Ask | Form field: h15LO, value given as bare % recorded for COc1ccc(C(=O)Nc2ccccc2)cc1NCc1cccc(C(=O)O)c1 [Example 241] with rabbit reticulocyte 15-LO (Oryctolagus cuniculus, UniProt P12530) (enter value)
Reply | 56.33

Ask | What measured h15LO, value given as bare % is associated with Cc1ccc(C(=O)Nc2ccccc2)cc1NC(=O)c1cc(Cl)cc(Cl)c1 [Example 255] on rabbit reticulocyte 15-LO (Oryctolagus cuniculus, UniProt P12530)?
Reply | 47

Ask | Lab note: need h15LO, value given as bare % with rabbit reticulocyte 15-LO (Oryctolagus cuniculus, UniProt P12530) for entry COc1ccccc1CNc1cc(C(=O)Nc2ccccc2)ccc1OC [Example 238] , please look it up.
Reply | 60

Ask | Form: Entry = COc1ccc(C(=S)Nc2ccccc2)cc1NS(=O)(=O)c1cc(Cl)cc(Cl)c1 [Example 208] | System = rabbit reticulocyte 15-LO (Oryctolagus cuniculus, UniProt P12530) | h15LO, value given as bare % = ____
Reply | 98.52

Ask | Query the reported h15LO, value given as bare % for rabbit reticulocyte 15-LO (Oryctolagus cuniculus, UniProt P12530); item: COc1ccc(C(=O)Nc2ccc(F)cc2)cc1Nc1cc(Cl)cc(Cl)c1 [Example 154]
Reply | 97.66

Ask | # returns recorded h15LO, value given as bare % (system: rabbit reticulocyte 15-LO (Oryctolagus cuniculus, UniProt P12530)) for COc1ccc(CNc2ccccc2)cc1NS(=O)(=O)c1cc(Cl)cc(Cl)c1 [Example 209]
Reply | 80.94

Ask | Can you look up h15LO, value given as bare % on rabbit reticulocyte 15-LO (Oryctolagus cuniculus, UniProt P12530) for O=C(Nc1ccc(F)c(NS(=O)(=O)c2cccs2)c1)c1ccc(F)c(F)c1 [Example 206] ?
Reply | 45.56

Ask | Entry COc1ccc(C(=O)Nc2ccccc2)cc1NS(=O)(=O)c1ccc(C#N)cc1 [Example 192] , system rabbit reticulocyte 15-LO (Oryctolagus cuniculus, UniProt P12530): what h15LO, value given as bare % was measured?
Reply | 95.56

Ask | Find the measured h15LO, value given as bare %: item COc1ccc(NC(=O)c2ccc(F)c(F)c2)cc1NS(=O)(=O)c1ccc([N+](=O)[O-])cc1 [Example 202] , target or system rabbit reticulocyte 15-LO (Oryctolagus cuniculus, UniProt P12530).
Reply | 93.85
